test: Pharmacokinetics of insufflated ImaT powder in rat: lung sections; format: in vivo, Sprague Dawley rats; details: male, Sprague Dawley, rat, lung, section 5 (homogenate), inhaled, 4 mg/kg; read-out: Lung conc, Section 5
result_type: concentration at 1 h (ng/mL)
Give bare numbers, in ng/mL.

Input Cc1ccc(NC(=O)c2ccc(CN3CCN(C)CC3)cc2)cc1Nc1nccc(-c2cccnc2)n1 . Output concentration at 1 h: 196

====

test: Pharmacokinetics of insufflated ImaT powder in rat: lung sections; type: in vivo, Sprague Dawley rats; conditions: male, Sprague Dawley, rat, lung, section 1 (homogenate), inhaled, 4 mg/kg; read-out: Lung conc, Section 1
result_type: concentration at 8 h (ng/mL)
Answers are plain numbers, in ng/mL.

So for Cc1ccc(NC(=O)c2ccc(CN3CCN(C)CC3)cc2)cc1Nc1nccc(-c2cccnc2)n1 [Imatinib] , the logged concentration at 8 h turned out to be 27.2
